test system: L1210 leukemia ip in BDF1 mice, survival T/C; assay: NCI In Vivo Anticancer Drug Screen. Data for tumor model L1210 Leukemia (intraperitoneal) in B6D2F1 (BDF1) mice; conditions: endpoint: mean survival time; dose: 400.0 mg/kg/injection; schedule: Q01DX009 (ip); vehicle: saline with Tween-80; higher = longer survival
Inconclusive results and toxic doses are left out.
value.kind: T/C

O=C(Nc1ccccc1)c1ccccc1C(O)(c1ccccc1)c1ccc(Cl)cc1 (centres undefined) | 93 % of control
O=c1[nH][nH]c(=O)n1-c1ccccc1 | 93 % of control
CSc1ccc(NC(=O)Nc2c(C)n(C)n(-c3ccccc3)c2=O)cc1 | 86 % of control
O=C1NC(=O)c2ccc(S)c3cccc1c23 | 97 % of control
Clc1ccc(N=NNc2ccc(Cl)cc2)cc1 | 92 % of control
CCCCC(C=O)(C=C=C(C)C)CC (centres undefined) | 89 % of control
Fc1cc(F)c(F)c(Oc2c(F)c(F)c(-c3c(F)c(F)c(F)c(F)c3F)c(F)c2F)c1F | 101 % of control
CC(=O)NC(CCSCc1c2ccccc2c(C)c2c1ccc1ccccc12)C(=O)O (centres undefined) | 90 % of control
Cc1cc(NC(=O)SCCOC(=O)COc2ccc(Cl)cc2)ccc1Cl | 90 % of control

----------
system: L1210 leukemia ip in BDF1 mice, survival T/C; assay: NCI In Vivo Anticancer Drug Screen. Data for tumor model L1210 Leukemia (intraperitoneal) in B6D2F1 (BDF1) mice; conditions: endpoint: mean survival time; dose: 200.0 mg/kg/injection; schedule: Q04DX003 (ip); vehicle: saline; higher = longer survival
Toxic doses and inconclusive results are not listed.
Below, each entry is listed alongside its reported T/C.
value.kind: T/C

O=C(O)C1=NN(c2cc(Cl)c(S(=O)(=O)O)cc2Cl)C(=O)C1 | 100 % of control
CC[N+](C)(C)c1ncnc2nc[nH]c12 | 96 % of control
C=CCNCC1OC(OC)C2OC(C)(C)OC12 (configuration not stated) | 102 % of control
O=C1CC2c3ccccc3C1C1C(=O)OC(=O)C21 (configuration not stated) | 91 % of control
O=C1c2ccccc2C(=O)N1OCCCCCCON1C(=O)c2ccccc2C1=O | 94 % of control
CCOCCCN | 106 % of control
CCCc1cn(C2OC(=O)c3ccccc32)c2ccccc12 (configuration not stated) | 97 % of control

----------
tested on: L1210 leukemia ip in BDF1 mice, survival T/C; experiment: NCI In Vivo Anticancer Drug Screen. Data for tumor model L1210 Leukemia (intraperitoneal) in B6D2F1 (BDF1) mice; details: endpoint: mean survival time; dose: 400.0 mg/kg/injection; schedule: Q04DX002 (ip); vehicle: Klucel (hydroxypropylcellulose) (HPC); higher = longer survival
Inconclusive results and toxic doses are left out.
Listed compounds paired with reported T/C
value.kind: T/C

CCOC(=O)C(C)N1C(=O)c2ccccc2C1=O (centres undefined) | 100 % of control
CC(C(=O)c1ccccc1)c1ccccc1 (centres undefined) | 98 % of control
COc1ccc(/C=N/NC(=O)c2ccccc2N)cc1 | 106 % of control
COC(=O)C1(C)CCCC2(C)C3CCC4(C)CC3(CCO4)CCC12 (centres undefined) | 95 % of control
CC(=O)OCC(O)C(O)C(O)C(O)C=O (centres undefined) (tested in a mixture with another compound) | 95 % of control
CCCCCCCCCCCCCCCCCC(=O)OC(C(O)C=O)C(O)C(O)CO (centres undefined) | 95 % of control
CC(Cc1cc(C)nc(NC#N)n1)=Nc1ccccc1 | 100 % of control
O=S(=O)(O)CCC(O)S(=O)(=O)O (centres undefined) | 92 % of control
Cc1cc([N+](=O)[O-])c(Nc2ccc(C)c(Cl)c2)c([N+](=O)[O-])c1 | 96 % of control
